study system: Protein deacetylase HDAC6 (Homo sapiens)
Sequence (Q9UBN7 whole entry, the tested form may be a part): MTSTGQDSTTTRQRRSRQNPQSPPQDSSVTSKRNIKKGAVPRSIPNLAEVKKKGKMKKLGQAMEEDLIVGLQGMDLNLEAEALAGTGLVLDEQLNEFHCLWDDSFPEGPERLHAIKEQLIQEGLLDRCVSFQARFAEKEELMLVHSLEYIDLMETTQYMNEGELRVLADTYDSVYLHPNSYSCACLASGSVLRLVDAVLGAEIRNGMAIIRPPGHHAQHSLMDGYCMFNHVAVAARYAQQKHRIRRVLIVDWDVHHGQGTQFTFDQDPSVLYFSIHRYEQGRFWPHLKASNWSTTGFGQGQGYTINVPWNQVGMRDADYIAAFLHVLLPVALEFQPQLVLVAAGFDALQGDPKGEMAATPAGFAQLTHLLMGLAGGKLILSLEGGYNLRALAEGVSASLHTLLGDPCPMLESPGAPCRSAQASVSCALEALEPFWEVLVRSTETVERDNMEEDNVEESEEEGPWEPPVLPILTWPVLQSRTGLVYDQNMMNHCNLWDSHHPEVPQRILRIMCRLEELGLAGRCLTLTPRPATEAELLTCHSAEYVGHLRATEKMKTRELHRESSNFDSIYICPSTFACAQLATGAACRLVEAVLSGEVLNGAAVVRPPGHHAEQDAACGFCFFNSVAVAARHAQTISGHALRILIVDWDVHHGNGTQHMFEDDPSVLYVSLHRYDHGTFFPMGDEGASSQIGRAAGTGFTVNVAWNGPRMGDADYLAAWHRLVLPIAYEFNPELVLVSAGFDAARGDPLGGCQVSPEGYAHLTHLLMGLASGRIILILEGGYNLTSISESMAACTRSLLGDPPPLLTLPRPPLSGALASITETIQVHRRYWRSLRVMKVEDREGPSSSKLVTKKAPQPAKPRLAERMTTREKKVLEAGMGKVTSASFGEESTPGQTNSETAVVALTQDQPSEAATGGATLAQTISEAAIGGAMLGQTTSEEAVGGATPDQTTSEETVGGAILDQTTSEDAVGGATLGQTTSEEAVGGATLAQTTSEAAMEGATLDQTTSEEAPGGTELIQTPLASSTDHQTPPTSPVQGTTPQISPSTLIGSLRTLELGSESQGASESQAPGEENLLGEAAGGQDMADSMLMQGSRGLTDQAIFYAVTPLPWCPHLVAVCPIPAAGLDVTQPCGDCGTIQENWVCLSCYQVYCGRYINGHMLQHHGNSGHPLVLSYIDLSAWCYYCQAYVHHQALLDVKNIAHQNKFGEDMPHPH
test protocol: Inhibition of HDAC6 (unknown origin) using p53 residues (379 to 382)(RHKK(Ac)-AMC) as substrate by fluorescent method
pIC50: −log10 of the molar value.
measured endpoint: pIC50

The reported pIC50 value, Protein deacetylase HDAC6 (Homo sapiens), for Cn1cc(-c2ccc(S(=O)(=O)n3ccc(/C=C/C(=O)Nc4ccccc4N)c3)cc2)cn1 reads < 5.00

====

study system: Histone deacetylase 3 (Homo sapiens, UniProt O15379)
Sequence (O15379 whole entry): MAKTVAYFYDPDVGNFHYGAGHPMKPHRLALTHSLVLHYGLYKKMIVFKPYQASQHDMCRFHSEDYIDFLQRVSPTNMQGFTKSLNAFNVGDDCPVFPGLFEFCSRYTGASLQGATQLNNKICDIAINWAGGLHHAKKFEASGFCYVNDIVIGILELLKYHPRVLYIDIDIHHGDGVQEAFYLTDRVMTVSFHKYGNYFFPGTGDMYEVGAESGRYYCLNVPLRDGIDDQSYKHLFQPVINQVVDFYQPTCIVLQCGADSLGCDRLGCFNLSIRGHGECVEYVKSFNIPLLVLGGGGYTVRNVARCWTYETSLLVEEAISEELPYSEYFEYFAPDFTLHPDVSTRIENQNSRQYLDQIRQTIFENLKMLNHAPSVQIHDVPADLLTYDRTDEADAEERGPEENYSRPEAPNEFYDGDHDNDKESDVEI
test protocol: Inhibition of HDAC3 (unknown origin)
measured endpoint: IC50 (nM)
Kindly provide the numeric value in nM only, without the unit symbol.

The reported IC50 of the molecule Cc1cn(C)nc1CN1CCC(c2ccc(C(=O)Nc3ccccc3N)cc2)CC1 was 600

====

study system: Histone deacetylase 8 (Homo sapiens, UniProt Q9BY41)
Sequence (Q9BY41 whole entry): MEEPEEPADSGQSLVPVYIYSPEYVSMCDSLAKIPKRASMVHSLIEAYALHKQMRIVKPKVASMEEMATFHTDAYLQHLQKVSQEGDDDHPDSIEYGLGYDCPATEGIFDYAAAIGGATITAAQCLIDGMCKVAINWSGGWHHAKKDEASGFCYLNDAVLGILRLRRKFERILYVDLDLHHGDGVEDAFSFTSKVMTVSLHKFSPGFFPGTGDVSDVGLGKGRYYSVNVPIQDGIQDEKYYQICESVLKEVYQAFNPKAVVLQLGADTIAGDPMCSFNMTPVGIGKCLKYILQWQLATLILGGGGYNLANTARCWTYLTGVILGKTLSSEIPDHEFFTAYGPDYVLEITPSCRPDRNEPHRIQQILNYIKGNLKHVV
test protocol: Inhibition of recombinant human C-terminal His-tagged HDAC8 expressed in baculovirus infected sf9 cells using p53 (379 to 382 residues) (Arg-His-Lys(Ac)-Lys(Ac)) by fluorimetric assay
measured endpoint: pIC50
Reminder that pIC50 is minus the log10 of a molar concentration.

Form: compound = CCCCNNC(=O)c1ccc(Br)cc1 ; pIC50 = 5.70

====

study system: Histone deacetylase 7 (Homo sapiens, UniProt Q8WUI4)
Sequence (Q8WUI4 whole entry): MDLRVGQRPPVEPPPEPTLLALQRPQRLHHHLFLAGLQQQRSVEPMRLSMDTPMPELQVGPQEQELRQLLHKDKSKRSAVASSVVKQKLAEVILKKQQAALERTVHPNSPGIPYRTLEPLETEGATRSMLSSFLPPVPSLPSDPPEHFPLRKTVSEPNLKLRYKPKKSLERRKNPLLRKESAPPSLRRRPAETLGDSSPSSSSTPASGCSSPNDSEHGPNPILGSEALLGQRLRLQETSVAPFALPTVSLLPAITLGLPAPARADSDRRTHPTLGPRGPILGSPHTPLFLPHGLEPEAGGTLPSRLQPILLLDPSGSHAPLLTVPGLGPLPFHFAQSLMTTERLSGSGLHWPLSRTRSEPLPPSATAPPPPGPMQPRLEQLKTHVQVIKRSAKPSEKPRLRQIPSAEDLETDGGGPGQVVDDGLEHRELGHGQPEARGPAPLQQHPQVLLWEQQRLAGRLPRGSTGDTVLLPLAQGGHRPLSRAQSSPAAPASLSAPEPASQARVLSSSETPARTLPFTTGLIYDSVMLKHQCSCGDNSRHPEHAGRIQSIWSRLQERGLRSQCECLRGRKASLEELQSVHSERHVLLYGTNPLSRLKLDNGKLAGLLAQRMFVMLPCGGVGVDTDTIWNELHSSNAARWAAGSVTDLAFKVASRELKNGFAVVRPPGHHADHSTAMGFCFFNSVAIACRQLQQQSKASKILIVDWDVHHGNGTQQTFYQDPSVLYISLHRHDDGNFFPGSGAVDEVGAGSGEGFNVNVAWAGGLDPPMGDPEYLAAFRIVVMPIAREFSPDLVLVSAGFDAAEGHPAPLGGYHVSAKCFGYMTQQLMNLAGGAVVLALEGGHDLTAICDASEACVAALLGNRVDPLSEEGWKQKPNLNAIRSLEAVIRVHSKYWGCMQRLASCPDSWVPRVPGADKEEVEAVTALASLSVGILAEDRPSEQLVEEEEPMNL
test protocol: Inhibition of human N-terminal GST-tagged HDAC7 (518 to end residues) expressed in baculovirus infected sf9 cells using carboxyfluorescein (FAM)-labeled acetylated peptide substrate by microfluidic capillary electrophoresis
pIC50: −log10 of the molar value.
measured endpoint: pIC50

Param item: CC(=O)Nc1ccc(C(=O)Nc2ccc(F)cc2N)cc1 ; param system: Histone deacetylase 7 (Homo sapiens, UniProt Q8WUI4); output pIC50: < 4.52
